Reference for the values: patent US5389614A

# Test system: gel-filtered human platelets
# ASSAY PROTOCOL: Inhibition of aggregation of gel-filtered human platelets after ADP or thrombin stimulation
# Type: cell-based
# CONDITION INFO: platelet aggregation, ADP stimulation; read-out: IC50 (μM), ADP-stimulated
MEASURED PROPERTY: IC50 (µM)

molecule="N=C(N)c1ccc(CC2NC(=O)N(CC(=O)N[C@@H](CC(=O)O)C(=O)N[C@@H](CCCCN)C(=O)O)C2=O)cc1 (stereo partly shown)" units_symbol=µM numeric_result=0.35

A = CC(C)[C@H](NC(=O)[C@H](CC(=O)O)NC(=O)CN1C(=O)NC(Cc2ccc(C(=N)N)cc2)C1=O)C(=O)O (stereo partly shown)
B = N=C(N)c1ccc(CC2NC(=O)N(CC(=O)N[C@@H](CC(=O)O)C(=O)N[C@@H](Cc3c[nH]c4ccccc34)C(=O)O)C2=O)cc1 (stereo partly shown)
## Input Which entry has a larger number for IC50, A or B ? Your answer should be the label attached to the chosen record.
## Output B
